# Experimental Target: MERTK (UniProt Q12866)
# Sequence (Q12866 whole entry, looked up): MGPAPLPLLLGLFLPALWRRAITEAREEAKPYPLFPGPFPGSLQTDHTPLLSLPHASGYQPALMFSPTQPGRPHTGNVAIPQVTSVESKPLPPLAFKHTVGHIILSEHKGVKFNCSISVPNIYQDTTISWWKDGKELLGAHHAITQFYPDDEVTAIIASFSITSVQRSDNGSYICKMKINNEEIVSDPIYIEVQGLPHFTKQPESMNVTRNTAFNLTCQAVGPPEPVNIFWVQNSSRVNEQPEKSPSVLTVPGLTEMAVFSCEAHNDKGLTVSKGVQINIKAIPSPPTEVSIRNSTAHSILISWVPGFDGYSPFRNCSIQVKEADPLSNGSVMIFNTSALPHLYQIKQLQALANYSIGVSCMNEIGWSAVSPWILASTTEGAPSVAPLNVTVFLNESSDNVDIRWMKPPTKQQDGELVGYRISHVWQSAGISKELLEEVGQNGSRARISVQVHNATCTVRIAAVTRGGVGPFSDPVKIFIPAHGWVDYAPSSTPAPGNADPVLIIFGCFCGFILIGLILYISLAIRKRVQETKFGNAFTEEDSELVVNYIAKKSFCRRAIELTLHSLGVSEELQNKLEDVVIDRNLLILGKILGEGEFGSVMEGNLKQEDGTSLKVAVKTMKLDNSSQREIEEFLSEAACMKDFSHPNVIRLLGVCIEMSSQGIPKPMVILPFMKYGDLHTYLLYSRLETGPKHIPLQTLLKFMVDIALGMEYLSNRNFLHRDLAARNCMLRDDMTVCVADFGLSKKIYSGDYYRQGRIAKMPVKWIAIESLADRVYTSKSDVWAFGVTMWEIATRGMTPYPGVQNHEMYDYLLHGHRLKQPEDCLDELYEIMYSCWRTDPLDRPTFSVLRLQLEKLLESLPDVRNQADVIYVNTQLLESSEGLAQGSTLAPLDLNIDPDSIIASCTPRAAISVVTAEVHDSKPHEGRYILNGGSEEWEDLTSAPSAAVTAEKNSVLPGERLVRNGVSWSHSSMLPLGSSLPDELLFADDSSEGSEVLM
# Protocol Notes: phosphorylation enrichment, bacterial display (enrichment ratio); higher = better substrate or ligand; peptides without Tyr show the background;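 further: 11-residue human phosphosite peptides and single-mutation variants displayed on the E. coli surface, counted by deep sequencing, each peptide's frequency after selection divided by its frequency in the unselected input library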;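 further: frequency after pTyr selection over input frequency; kinase dosed for 20-30% of maximal phosphorylation in three min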
Measured Parameter: phosphorylation enrichment
Response field accepts a number only; no unit should be typed.

[in] Suppose we examine the sequence LTGIAYGLPHW [SLC22A14_Y291_S292G] ; what phosphorylation enrichment value has been reported?
[out] 0.508

[in] Suppose we examine the sequence GFKVRYATWSI [FGFR1_Y210_YF] ; what phosphorylation enrichment value has been reported?
[out] 0.499

[in] Suppose we examine the sequence QELRRYLESGV [MICA_Y194_K196E] ; what phosphorylation enrichment value has been reported?
[out] 0.49

[in] Suppose we examine the sequence GADAIYDHINE [UQCR10_Y44] ; what phosphorylation enrichment value has been reported?
[out] 3.14

[in] Suppose we examine the sequence GPQSLYNGLVA [UCP2_Y79_R76Q] ; what phosphorylation enrichment value has been reported?
[out] 0.723

[in] Suppose we examine the sequence SSLEDYVRETN [GIMAP6_Y176_G171S] ; what phosphorylation enrichment value has been reported?
[out] 0.424

====

# Experimental Target: Jak2 (UniProt O60674)
# Sequence (O60674 whole entry, looked up): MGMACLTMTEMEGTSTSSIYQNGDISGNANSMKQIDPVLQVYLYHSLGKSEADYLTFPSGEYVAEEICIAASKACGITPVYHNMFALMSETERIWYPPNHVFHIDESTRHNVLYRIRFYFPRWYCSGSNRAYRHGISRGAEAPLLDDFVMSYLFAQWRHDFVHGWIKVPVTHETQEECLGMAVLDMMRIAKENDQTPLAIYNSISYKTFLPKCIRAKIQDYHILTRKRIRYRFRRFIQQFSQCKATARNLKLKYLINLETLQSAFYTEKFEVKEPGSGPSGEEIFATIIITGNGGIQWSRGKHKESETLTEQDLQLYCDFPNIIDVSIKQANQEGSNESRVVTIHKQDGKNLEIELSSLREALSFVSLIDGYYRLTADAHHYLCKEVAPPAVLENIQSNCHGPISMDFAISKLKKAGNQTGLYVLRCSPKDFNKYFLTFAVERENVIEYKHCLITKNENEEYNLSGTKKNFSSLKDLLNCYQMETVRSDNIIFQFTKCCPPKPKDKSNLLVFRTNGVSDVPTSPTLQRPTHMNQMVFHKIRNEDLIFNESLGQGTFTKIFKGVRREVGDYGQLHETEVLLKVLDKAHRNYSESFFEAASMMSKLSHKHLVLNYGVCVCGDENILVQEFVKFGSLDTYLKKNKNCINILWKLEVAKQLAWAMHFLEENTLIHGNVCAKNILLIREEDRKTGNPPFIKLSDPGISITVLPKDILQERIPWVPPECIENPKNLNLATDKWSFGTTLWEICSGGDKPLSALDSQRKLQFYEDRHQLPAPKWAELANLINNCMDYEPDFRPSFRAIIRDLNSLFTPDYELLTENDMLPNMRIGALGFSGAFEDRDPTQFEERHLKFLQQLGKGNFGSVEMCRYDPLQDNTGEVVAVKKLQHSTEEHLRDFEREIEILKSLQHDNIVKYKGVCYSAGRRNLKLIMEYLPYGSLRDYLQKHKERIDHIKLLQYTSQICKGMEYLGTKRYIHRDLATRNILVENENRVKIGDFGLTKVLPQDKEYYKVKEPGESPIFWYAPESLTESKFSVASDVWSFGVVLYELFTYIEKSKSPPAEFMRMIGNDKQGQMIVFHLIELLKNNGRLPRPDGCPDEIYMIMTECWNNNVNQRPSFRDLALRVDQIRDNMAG
# Protocol Notes: phosphorylation enrichment, bacterial display (enrichment ratio); higher = better substrate or ligand; peptides without Tyr show the background
Measured Parameter: phosphorylation enrichment
Response field accepts a number only; no unit should be typed.

| Biopolymer Sequence | Measured Number |
| --- | --- |
| QSLEPYTKQQL [STAT3_Y640_V637L] | 0.48 |
| WLFFRYLAIGC [ATP2A2_Y836] | 1.49 |
| QRMGTYGVRAA [ICAM2_Y260] | 0.983 |

[in] Suppose we examine the sequence YTGSTYRVGDT [FN1_Y106_N104S] ; what phosphorylation enrichment value has been reported?
[out] 0.715

[in] Suppose we examine the sequence TKFRNYLIPKG [CYP2C8_Y379] ; what phosphorylation enrichment value has been reported?
[out] 0.592

[in] Suppose we examine the sequence TNIKRYHIAKG [HARS1_Y150_V155G] ; what phosphorylation enrichment value has been reported?
[out] 0.368

====

# Experimental Target: MERTK (UniProt Q12866)
# Protocol Notes: phosphorylation enrichment, bacterial display (enrichment ratio); higher = better substrate or ligand; peptides without Tyr show the background
Entries and their phosphorylation enrichment
Response field accepts a number only; no unit should be typed.

# example entries with known answers
| Biopolymer Sequence | Experimental Target | Measured Parameter | Measured Number |
| --- | --- | --- | --- |
| WRPFGYPRCRR [BCS1L_Y181_R184C] | MERTK (UniProt Q12866) | phosphorylation enrichment | 0.505 |
| AALKLYHVSDS [VIL1_Y256] | MERTK (UniProt Q12866) | phosphorylation enrichment | 0.847 |
| LAIEWYVVVCK [RHO_Y136_R135W] | MERTK (UniProt Q12866) | phosphorylation enrichment | 0.676 |

[in] Suppose we examine the sequence IRSGIYYKPES [L2HGDH_Y102_H98R] ; what phosphorylation enrichment value has been reported?
[out] 9.7

[in] Suppose we examine the sequence DDKQPYEKKAE [HMGB1_Y144_A149E] ; what phosphorylation enrichment value has been reported?
[out] 0.515

[in] Suppose we examine the sequence QAYSWYQHQRA [NDST1_Y714_R709Q] ; what phosphorylation enrichment value has been reported?
[out] 3.85

[in] Suppose we examine the sequence DGTESYLTVSS [PLK1_Y462] ; what phosphorylation enrichment value has been reported?
[out] 0.387

Data provenance is the supplement of paper PMC10065799.
